These entries and their values trace back to patent US11780840B2.

molecular target: catalytic domain (JH1, amino acids 826-1132) of human JAK2 (Homo sapiens, UniProt O60674); construct: catalytic domain (JH1, amino acids 826-1132) of human JAK2; FLAG (N); assay: JAK2 LanthaScreen JH1 Binding Assay; conditions: JAK2 JH1 (1.5 nM), 50 nM fluorescent JAK2-JH1 tracer, 2 hours at 25° C.; read-out: JH1 BIND
Sequence (O60674 826-1132): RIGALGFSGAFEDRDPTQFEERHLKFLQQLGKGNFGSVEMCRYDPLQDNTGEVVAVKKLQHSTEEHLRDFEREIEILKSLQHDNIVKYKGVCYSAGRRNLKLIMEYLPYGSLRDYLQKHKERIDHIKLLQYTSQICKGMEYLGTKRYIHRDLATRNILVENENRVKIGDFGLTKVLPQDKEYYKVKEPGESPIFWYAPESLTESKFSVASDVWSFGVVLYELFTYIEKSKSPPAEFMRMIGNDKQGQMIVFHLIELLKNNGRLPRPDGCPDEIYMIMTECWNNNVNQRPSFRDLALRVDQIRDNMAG
Listed here are compounds together with their documented IC50.

>  <compound_structure_string>
CC(C)n1c(=O)n(C)c2cnc3[nH]c(-c4cnn(CC(C)(C)O)c4)c(-c4cc5c(s4)CCN(S(C)(=O)=O)C5)c3c21

>  <IC50>
> 1000 nM

$$$$
>  <compound_structure_string>
COCCn1cc(-c2[nH]c3ncc4c(c3c2-c2ccc3c(cnn3C)c2)n(C2CCCC2)c(=O)n4C)cn1

>  <IC50>
100 to 500 nM

$$$$
>  <compound_structure_string>
CC(C)n1c(=O)n(C)c2cnc3[nH]c(-c4cnn(CC(C)(C)O)c4)c(-c4ccc5c(cnn5C)c4)c3c21

>  <IC50>
> 1000 nM

$$$$
